Measurement label: melting point

[[record]]
compound = "CC(=O)c1ccc(NS(C)(=O)=O)c(C(=O)Nc2ccc(F)cc2F)c1"
measurement_label = "melting point"
result = "153 to 155 °C"

[[record]]
compound = "CCN(C(C)=O)c1cccc(-c2ccnc3c(C(=O)c4ccccc4)cnn23)c1"
measurement_label = "melting point"
result = "158 to 160 °C"

[[record]]
compound = "O=C1NCCCCC1c1cccc(O)c1 (stereo unspecified)"
measurement_label = "melting point"
result = "175 to 178 °C"

[[record]]
compound = "Cc1cn(Cc2ccc(N)cc2)cn1"
measurement_label = "melting point"
result = "141 to 142 °C"

[[record]]
compound = "COc1nc(N)nc(SC(F)F)n1"
measurement_label = "melting point"
result = "146 to 150 °C"

[[record]]
compound = "CC(=O)NCCCNC(=O)c1cc2c(ccc3cnn(C[C@H](C)N)c32)o1"
measurement_label = "melting point"
result = "81 °C"

[[record]]
compound = "COC1=CC(=O)C2CC(O[Si](C)(C)C)=CC(OC)C2C1=O (stereo unspecified)"
measurement_label = "melting point"
result = "108 to 110 °C"

[[record]]
compound = "N#Cc1cc(Cl)ccc1Oc1cccc(O)c1"
measurement_label = "melting point"
result = "118 to 120 °C"

[[record]]
compound = "CC(=O)Nc1noc(C)c1Cl"
measurement_label = "melting point"
result = "121 to 122 °C"

[[record]]
compound = "CCCCCCCCOC(=S)c1cc(C(C)(C)C)c(OC(=O)c2cc(C(C)(C)C)c(O)c(C(C)(C)C)c2)c(C(C)(C)C)c1"
measurement_label = "melting point"
result = "129 to 132 °C"

[[record]]
compound = "CC(=O)c1cc2cc(Br)ccc2s1"
measurement_label = "melting point"
result = "120 to 121 °C"

[[record]]
compound = "Cn1cc(C=O)c(-c2ccc([N+](=O)[O-])o2)n1"
measurement_label = "melting point"
result = "181 to 182 °C"

[[record]]
compound = "CCOC(=O)C(CBr)=NOC(=O)c1ccc(Cl)cc1"
measurement_label = "melting point"
result = "82 to 84.5 °C"

[[record]]
compound = "O=[N+]([O-])C1=C2N(Cc3ccc(Cl)nc3)CCN2C2CCC1O2 (stereo unspecified)"
measurement_label = "melting point"
result = "149 to 150 °C"

[[record]]
compound = "N#Cc1ccnc(C=Cc2ccccc2)n1"
measurement_label = "melting point"
result = "147 to 150 °C"

[[record]]
compound = "Clc1ccc(N2CC(c3ccccc3)=C(c3ccccc3)C2)cc1"
measurement_label = "melting point"
result = "158 °C"

[[record]]
compound = "O=C(O)Cc1cccc2c(-c3ccc(F)cc3)nccc12"
measurement_label = "melting point"
result = "214 to 216 °C"

[[record]]
compound = "CCCCCCCCN=C1SC(=CC(=O)O)C(=O)N1CCCCCCCC"
measurement_label = "melting point"
result = "57 to 61 °C"

[[record]]
compound = "COc1ccc(N2Cc3nc(C(=O)O)nn3-c3cccnc32)cc1"
measurement_label = "melting point"
result = "190 to 196 °C"

[[record]]
compound = "CCN(CC)c1cccc(N(CC)CC)c1C(=O)O"
measurement_label = "melting point"
result = "112 to 114 °C"

[[record]]
compound = "Nc1ccc(C(=O)N2CCCCCC2=O)cc1"
measurement_label = "melting point"
result = "156 to 158 °C"

